Experiment: Total Cmax in Sprague-Dawley rat at 100 mg/kg administered via oral gavage measured at 1 to 24 hrs post dose
Type: ADME, organism-based
Parameters: dose 100 mg/kg, route oral
Conditions: in vivo
Property Name: Cmax (µM)
Give just the numeric value; µM need not be written.

Which measured Cmax value corresponds to Cc1cn(-c2ccc3n(c2=O)CCN([C@@H](C)C2=CC(C)(C)Oc4ccc(OC(F)(F)F)cc42)C3=O)cn1 ?
17.7

---

Experiment: Cardiotoxicity in Wistar rat langendorff isolated heart model assessed as decrease in left ventricle pressure perfused for 5 mins measured for 1 min
Assay type: toxicity, tissue-based
Property Name: IC50 at 5 min (nM)
Give just the numeric value; nM need not be written.

Cc1cn(-c2ccc3n(c2=O)CCN([C@@H](C)C2=CC(C)(C)Oc4ccc(OC(F)(F)F)cc42)C3=O)cn1
1620

// moving on: another record for IC50 at 5 min
Which measured IC50 at 5 min value corresponds to Cc1cn(-c2ccc3n(c2=O)CCN([C@@H](C)C2=CC(C)(C)Oc4ccc(C(F)(F)F)cc42)C3=O)cn1 ?
1030

---

Experiment: Total Cmax in Sprague-Dawley rat at 30 mg/kg administered via oral gavage measured at 1 to 24 hrs post dose
Type: ADME, organism-based
Set-up: dose 30 mg/kg, route oral
Conditions: in vivo
Property Name: Cmax (µM)
Give just the numeric value; µM need not be written.

Which measured Cmax value corresponds to Cc1cn(-c2ccc3n(c2=O)CCN([C@@H](C)C2=CC(C)(C)Oc4ccc(C(F)(F)F)cc42)C3=O)cn1 ?
5.84

---

Item-by-item account of microsomal CLint
Experiment: Apparent intrinsic clearance in human liver microsomes
Format: ADME, microsome
Conditions: read-out: CLH
Give just the numeric value; µL/min/mg need not be written.

Use the examples below as a reference point.
Cc1cn(-c2ccc3n(c2=O)CCN(C[C@@]24C[C@@H]2C(C)(C)Oc2ccc(C(F)(F)F)cc24)C3=O)cn1
34.5
Cc1cn(-c2ccc3n(c2=O)CCN(C[C@@]24C[C@@H]2COc2ccc(C(F)(F)F)cc24)C3=O)cn1
37.9
Cc1cn(-c2ccc3n(c2=O)CCN(C[C@@]24C[C@@H]2C(C)(C)Oc2ccc(OC(F)(F)F)cc24)C3=O)cn1
42.4
Cc1cn(-c2ccc3n(c2=O)CCN(C[C@@]24C[C@@H]2COc2cc(C(F)(F)F)ccc24)C3=O)cn1
14.6
Cc1cn(-c2ccc3n(c2=O)CCN([C@@H](C)C2=CC(C)(C)Oc4ccc(OC(F)(F)F)cc42)C3=O)cn1
25.7
COc1ccc2c(c1)[C@]1(CN3CCn4c(ccc(-n5cnc(C)c5)c4=O)C3=O)C[C@@H]1CO2
33.7
Cc1cn(-c2ccc3n(c2=O)CCN([C@@H](C)C2=CC(C)(C)Oc4ccc(C(F)(F)F)cc42)C3=O)cn1
14.3
Cc1cn(-c2ccc3n(c2=O)CCN(CC2CCOc4ccc(C(F)(F)F)cc42)C3=O)cn1 (stereo not drawn)
37.6
Cc1cn(-c2ccc3n(c2=O)CCN(CC2=CCOc4ccc(C(F)(F)F)cc42)C3=O)cn1
108
Cc1cn(-c2ccc3n(c2=O)CCN([C@H](C)C2=CC(C)(C)Oc4ccc(C(F)(F)F)cc42)C3=O)cn1
242

Which measured microsomal CLint value corresponds to Cc1cn(-c2ccc3n(c2=O)CCN(C[C@@]24C[C@@H]2COc2ccc(Cl)cc24)C3=O)cn1 ?
43.9

Which measured microsomal CLint value corresponds to Cc1cn(-c2ccc3n(c2=O)CCN(CC2=CC(C)(C)Oc4ccc(C(F)(F)F)cc42)C3=O)cn1 ?
47.8

Which measured microsomal CLint value corresponds to Cc1cn(-c2ccc3n(c2=O)CCN(C[C@]24C[C@H]2COc2ccc(C(F)(F)F)cc24)C3=O)cn1 ?
70.5
